Hey, just so you know, these numbers are from patent US9296759B2.

System: Abeta 40
Assay: In vivo inhibition of beta-secretase: Abeta 40 reduction in CSF and brain of the rat
Conditions: Abeta 40, rat brain, 10 mpk, after 4 hrs; read-out: % reduction of rat brain levels at 10 mpk
Answer each item with its documented inhibition in vivo at 10 mg/kg.
Give bare numbers, in %.

{"compound": "Cc1nc(C(=O)Nc2ccc3c(c2)[C@@]2(CCOC(N)=N2)c2cc(-c4cncc(F)c4)nc(F)c2O3)cs1 [Example 88]", "assayTarget": "Abeta 40", "inhibition in vivo at 10 mg/kg [%]": 27}
{"compound": "COc1ccc(C(=O)Nc2ccc3c(c2)[C@@]2(CCOC(N)=N2)c2cc(C4=CCCOC4)nc(F)c2O3)nc1 [Example 84]", "assayTarget": "Abeta 40", "inhibition in vivo at 10 mg/kg [%]": 71}
{"compound": "NC1=N[C@@]2(CCO1)c1cc(NC(=O)c3ccc(Cl)cn3)ccc1Oc1cnc(C3CC3)cc12 [Example 81]", "assayTarget": "Abeta 40", "inhibition in vivo at 10 mg/kg [%]": 64}

Provide each entry's inhibition in vivo at 10 mg/kg from the list below.
1. COc1cnc(C(=O)Nc2ccc3c(c2)[C@@]2(CCOC(N)=N2)c2cc(C4=CCCOC4)cc(F)c2O3)cn1 [Example 106]
2. NC1=N[C@@]2(CCO1)c1cc(NC(=O)c3ccc(Cl)cn3)ccc1Oc1c2cc(C2=CCCOC2)nc1F [Example 39]
3. NC1=N[C@@]2(CCO1)c1cc(NC(=O)c3ccc(Cl)cn3)ccc1Oc1c2cc(C2CC2)nc1F [Example 40]
4. COc1cnc(C(=O)Nc2ccc3c(c2)[C@@]2(CCOC(N)=N2)c2cc(C4=CCOCC4)nc(F)c2O3)cn1 [Example 65]
5. COc1ccc(C(=O)Nc2ccc3c(c2)[C@@]2(CCSC(N)=N2)c2cc(C4=CCOCC4)nc(F)c2O3)nc1 [Example 101]

1. 16
2. 80
3. 58
4. 71
5. 59

Here are 6 compounds. What values of inhibition in vivo at 10 mg/kg were reported for them?
1. NC1=N[C@@]2(CCS1)c1cc(NC(=O)c3ccc(Cl)cn3)ccc1Oc1c2cc(C2=CCCOC2)nc1F [Example 68]
2. COc1cnc(C(=O)Nc2ccc3c(c2)[C@@]2(CCOC(N)=N2)c2cc(-c4ccnc(F)c4)nc(F)c2O3)cn1 [Example 92]
3. NC1=N[C@@]2(CCO1)c1cc(NC(=O)c3ccc(Cl)cn3)ccc1Oc1c2cc(C2=CCOCC2)nc1F [Example 63]
4. COc1ccc(C(=O)Nc2ccc3c(c2)[C@@]2(CCOC(N)=N2)c2cc(C4=CCOCC4)nc(F)c2O3)nc1 [Example 78]
5. NC1=N[C@@]2(CCO1)c1cc(NC(=O)c3ccc(Cl)cn3)ccc1Oc1ncc(Br)cc12 [Example 34]
6. NC1=N[C@@]2(CCO1)c1cc(NC(=O)c3ccc(F)cn3)ccc1Oc1c2cc(-c2ccnc(F)c2)nc1F [Example 97]

1: 73; 2: 70; 3: 75; 4: 70; 5: 17; 6: 44

Form field: inhibition in vivo at 10 mg/kg recorded for COc1cnc(C(=O)Nc2ccc3c(c2)[C@@]2(CCOC(N)=N2)c2cc(C4CC4)nc(F)c2O3)cn1 [Example 54] with Abeta 40 (enter value)
65
